molecular target: T1, SARS-CoV-2 receptor binding domain (RBD), wild type, His-tagged (SARS-CoV-2, UniProt P0DTC2 319-541); test: method and format not given
T1 construct: domain: RBD; also called His-tagged RBD; BEI NR52309
metric: pKd
The meaning of pKd here: minus log10 of the concentration in molar units.

Example binders with recorded pKd:
{"columns": ["binder", "pKd"],
 "data": [
  ["mAb 120 (antibody, V domains shown, also called IgG 120; Antibody 120) VH: QVQLVQSGAEVKKPGASVKVSCKASGYTFTSYDINWVRQAPGQGLEWMGMIDPSGGSTSYAQKFQGRVTMTRDTSTSTVYMELSSLRSEDTAVYYCAKDFGGGTRYDYWYFDLWGRGTLVTVSS VL: EIVMTQSPATLSVSPGERATLSCRASQSVSSRYLAWYQQKPGQAPRLLIYGASTRATGIPARFSGSGSGTEFTLTISSLQSEDFAVYYCQQYYTTPRTFGQGTRLEIKR", 7.62],
  ["mAb 349 (antibody, V domains shown, also called IgG 349; Antibody 349) VH: EVQLLESGGGLVQPGGSLRLSCAASGFTFSNYGMHWVRQAPGKGLEWVSGISSAGSITNYADSVKGRFTISRDNSKNTLYLQMNSLRAEDTAVYYCAGNHAGTTVTSEYFQHWGQGTLVTVSS VL: DIQMTQSPSSLSASVGDRVTITCRASQSISSWLAWYQQKPGKAPKLLIYDTSNLETGVPSRFSGSGSGTDFTLTISSLQPEDFATYYCQQSYTTPWTFGQGTRLEIKR", 7.13]
]}

Please examine the following record next.
Q) Tell me the measured pKd of mAb 46 (antibody, V domains shown, also called IgG 46; Antibody 46) VH: EVQLLESGGGLVQPGRSLRLSCAASGFTFSSYAMSWVRQAPGKGLEWVSTIYSGGSTYYADSVKGRFTISRDNSKNTLYLQMNSLRAEDTAVYYCARGDSRDAFDIWGQGTMVTVSS VL: DIQMTQSPSSLSASVGDRVTITCRASQSISSWLAWYQQKPGKAPKLLIYDASNLETGVPSRFSGSGSGTDFTLTISSLQPEDFATYYCQQSYSTPFTFGPGTKVDIKR , please.
A) 7.08
